assayed.target: HLA-A*11:01
procedure.details: IEDB peptide-MHC binding, purified MHC/competitive/fluorescence; bounds were set here for any values at or beyond the usual limits of such assays
condition.details: source organism: Zaire ebolavirus
parameter: IC50 (nM)
// note: answer is a bare numeric in nM

TVAPPAPVY	276
ITAASLPKT	2900

Sure, the documented IC50 for "VVFSTSDGK" is 1030

###

assayed.target: HLA-A*68:02
procedure.details: IEDB peptide-MHC binding, purified MHC/competitive/radioactivity; filed as Kd, often an IC50 or EC50 that approximates it; bounds were set here for any values at or beyond the usual limits of such assays
condition.details: source organism: Dengue virus 3 Martinique/1243/1999
parameter: pKd
Please express pKd as -log10 of the molar concentration.

GET /values?item= "ETQHGTILI" &system= HLA-A*68:02 returns pKd: 7.67

###

assayed.target: HLA-B*44:02
procedure.details: IEDB peptide-MHC binding, purified MHC/competitive/radioactivity; filed as Kd, often an IC50 or EC50 that approximates it; bounds were set here for any values at or beyond the usual limits of such assays
condition.details: source organism: Mammarenavirus brazilense
pKd: −log10 of the molar value.
pKd values for the sequences below.

QDPLLGTLS	≤ 4.11
GDEALRGFL	≤ 4.33

Could you now look at the following sequence, please?
Sure, the documented pKd for "ADMSKLISL" is ≤ 4.43

###

assayed.target: HLA-A*33:01
procedure.details: IEDB peptide-MHC binding, purified MHC/competitive/radioactivity; filed as Kd, often an IC50 or EC50 that approximates it; bounds were set here for any values at or beyond the usual limits of such assays
condition.details: source organism: SARS coronavirus Tor2
pKd: −log10 of the molar value.
We use 5 as the dividing line for pKd: on or above the line is fulfilled, below is not fulfilled.

LQGPPGTGK	not fulfilled
QTMLFTMLR	fulfilled
QLLMPLKAPK	fulfilled
LLLFADINGK	not fulfilled
VMCGGSLYVK	not fulfilled

Now for another entry.
Ask | Say whether "YSYATHHDK" shows pKd of 5 or more.
Reply | not fulfilled

###

assayed.target: HLA-A*02:16
procedure.details: IEDB peptide-MHC binding, purified MHC/direct/fluorescence; filed as Kd, often an IC50 or EC50 that approximates it; bounds were set here for any values at or beyond the usual limits of such assays
condition.details: source organism: Reston ebolavirus
parameter: Kd

Sure, the documented Kd for "LPRERFRKT" is ≥ 20 µM

###

assayed.target: HLA-A*23:01
procedure.details: IEDB peptide-MHC binding, purified MHC/competitive/radioactivity; filed as Kd, often an IC50 or EC50 that approximates it; bounds were set here for any values at or beyond the usual limits of such assays
condition.details: source organism: Dengue virus 3 Martinique/1243/1999
parameter: Kd (nM)
// note: answer is a bare numeric in nM

Sure, the documented Kd for "WMVHRQWFF" is 125

###

assayed.target: HLA-A*29:02
procedure.details: IEDB peptide-MHC binding, purified MHC/competitive/radioactivity; filed as Kd, often an IC50 or EC50 that approximates it; bounds were set here for any values at or beyond the usual limits of such assays
condition.details: source organism: Vaccinia virus WR
parameter: pKd
Please express pKd as -log10 of the molar concentration.

Sure, the documented pKd for "VSENTGMGMY" is 7.47

###

assayed.target: HLA-A*11:01
procedure.details: IEDB peptide-MHC binding, purified MHC/direct/fluorescence; filed as Kd, often an IC50 or EC50 that approximates it; bounds were set here for any values at or beyond the usual limits of such assays
condition.details: source organism: Influenza A virus (A/quail/Hong Kong/FY298/00(H9N2))
pKd: −log10 of the molar value.
parameter: pKd

Sure, the documented pKd for "SYLIRALTL" is ≤ 4.70

###

assayed.target: HLA-A*02:03
procedure.details: IEDB peptide-MHC binding, purified MHC/direct/fluorescence; filed as Kd, often an IC50 or EC50 that approximates it; bounds were set here for any values at or beyond the usual limits of such assays
condition.details: source organism: Influenza A virus(A/swine/Henan/2/2004(H9N2))
parameter: Kd

Sure, the documented Kd for "LLTEVETYV" is ≤ 1 nM

###

assayed.target: HLA-A*02:03
procedure.details: IEDB peptide-MHC binding, purified MHC/direct/fluorescence; filed as Kd, often an IC50 or EC50 that approximates it; bounds were set here for any values at or beyond the usual limits of such assays
condition.details: source organism: Reston ebolavirus
parameter: Kd

GET /values?item= "LPRERFRKT" &system= HLA-A*02:03 returns Kd: ≥ 20 µM

###

assayed.target: HLA-B*58:01
procedure.details: IEDB peptide-MHC binding, purified MHC/direct/fluorescence; filed as Kd, often an IC50 or EC50 that approximates it; bounds were set here for any values at or beyond the usual limits of such assays
condition.details: source organism: Yellow fever virus
pKd: −log10 of the molar value.
parameter: pKd

Sure, the documented pKd for "FHKRDMRLL" is ≤ 4.70

###

assayed.target: HLA-B*53:01
procedure.details: IEDB peptide-MHC binding, purified MHC/competitive/radioactivity; filed as Kd, often an IC50 or EC50 that approximates it; bounds were set here for any values at or beyond the usual limits of such assays
condition.details: source organism: Triticum aestivum
pKd: −log10 of the molar value.
parameter: pKd

Sure, the documented pKd for "QPFLQPQL" is ≤ 4.06

###

assayed.target: HLA-B*18:01
procedure.details: IEDB peptide-MHC binding, purified MHC/direct/fluorescence; filed as Kd, often an IC50 or EC50 that approximates it; bounds were set here for any values at or beyond the usual limits of such assays
condition.details: source organism: Escherichia coli O157:H7 str. EC4486
parameter: Kd

Sure, the documented Kd for "YAMMSLFDM" is ≥ 20 µM

###

assayed.target: HLA-A*26:02
procedure.details: IEDB peptide-MHC binding, purified MHC/competitive/fluorescence; filed as Kd, often an IC50 or EC50 that approximates it; bounds were set here for any values at or beyond the usual limits of such assays
condition.details: source organism: Vaccinia virus Copenhagen
pKd: −log10 of the molar value.
parameter: pKd

Sure, the documented pKd for "ALYSYASAK" is ≤ 4.70

###

assayed.target: HLA-A*69:01
procedure.details: IEDB peptide-MHC binding, purified MHC/direct/fluorescence; filed as Kd, often an IC50 or EC50 that approximates it; bounds were set here for any values at or beyond the usual limits of such assays
condition.details: source organism: Mycobacterium avium 104
pKd: −log10 of the molar value.
parameter: pKd

Sure, the documented pKd for "VYLPGRGGV" is ≤ 4.70

###

assayed.target: HLA-B*15:17
procedure.details: IEDB peptide-MHC binding, purified MHC/direct/fluorescence; filed as Kd, often an IC50 or EC50 that approximates it; bounds were set here for any values at or beyond the usual limits of such assays
condition.details: source organism: Escherichia coli O157:H7
parameter: Kd

Sure, the documented Kd for "WLSVIAFGK" is ≥ 20 µM

###

assayed.target: HLA-B*27:03
procedure.details: IEDB peptide-MHC binding, purified MHC/competitive/fluorescence; filed as Kd, often an IC50 or EC50 that approximates it; bounds were set here for any values at or beyond the usual limits of such assays
condition.details: source organism: Cryptosporidium parvum Iowa II
pKd: −log10 of the molar value.
parameter: pKd

GET /values?item= "RGRKPIFRK" &system= HLA-B*27:03 returns pKd: ≤ 4.70

###

assayed.target: HLA-A*26:01
procedure.details: IEDB peptide-MHC binding, purified MHC/competitive/fluorescence; filed as Kd, often an IC50 or EC50 that approximates it; bounds were set here for any values at or beyond the usual limits of such assays
condition.details: source organism: Vibrio vulnificus YJ016
pKd: −log10 of the molar value.
parameter: pKd

Sure, the documented pKd for "IALPVAWLF" is ≤ 4.70

###

assayed.target: HLA-B*46:01
procedure.details: IEDB peptide-MHC binding, purified MHC/competitive/fluorescence; filed as Kd, often an IC50 or EC50 that approximates it; bounds were set here for any values at or beyond the usual limits of such assays
condition.details: source organism: Vibrio vulnificus YJ016
pKd: −log10 of the molar value.
parameter: pKd

Sure, the documented pKd for "IALPVAWLF" is ≤ 4.70

###

assayed.target: HLA-B*57:01
procedure.details: IEDB peptide-MHC binding, purified MHC/competitive/fluorescence; filed as Kd, often an IC50 or EC50 that approximates it; bounds were set here for any values at or beyond the usual limits of such assays
condition.details: source organism: Entamoeba histolytica HM-1:IMSS
pKd: −log10 of the molar value.
parameter: pKd

Sure, the documented pKd for "IEAKINVAD" is ≤ 4.70

###

assayed.target: HLA-B*08:01
procedure.details: IEDB peptide-MHC binding, purified MHC/direct/fluorescence; filed as Kd, often an IC50 or EC50 that approximates it; bounds were set here for any values at or beyond the usual limits of such assays
condition.details: source organism: Haemophilus influenzae
parameter: pKd
Please express pKd as -log10 of the molar concentration.

Sure, the documented pKd for "EIKFNDITF" is 5.58

Attribution: the Immune Epitope Database (IEDB)
